biological target: Phosphatidylinositol 4,5-bisphosphate 3-kinase catalytic subunit delta isoform (Homo sapiens); assay: Inhibition of histidine-tagged recombinant human full length PI3Kdelta expressed in baculovirus preincubated for 15 mins followed by addition of cold ATP/gamma32P-ATP measured after 20 mins in presence of MgCl2
Sequence (O00329 whole entry, canonical isoform): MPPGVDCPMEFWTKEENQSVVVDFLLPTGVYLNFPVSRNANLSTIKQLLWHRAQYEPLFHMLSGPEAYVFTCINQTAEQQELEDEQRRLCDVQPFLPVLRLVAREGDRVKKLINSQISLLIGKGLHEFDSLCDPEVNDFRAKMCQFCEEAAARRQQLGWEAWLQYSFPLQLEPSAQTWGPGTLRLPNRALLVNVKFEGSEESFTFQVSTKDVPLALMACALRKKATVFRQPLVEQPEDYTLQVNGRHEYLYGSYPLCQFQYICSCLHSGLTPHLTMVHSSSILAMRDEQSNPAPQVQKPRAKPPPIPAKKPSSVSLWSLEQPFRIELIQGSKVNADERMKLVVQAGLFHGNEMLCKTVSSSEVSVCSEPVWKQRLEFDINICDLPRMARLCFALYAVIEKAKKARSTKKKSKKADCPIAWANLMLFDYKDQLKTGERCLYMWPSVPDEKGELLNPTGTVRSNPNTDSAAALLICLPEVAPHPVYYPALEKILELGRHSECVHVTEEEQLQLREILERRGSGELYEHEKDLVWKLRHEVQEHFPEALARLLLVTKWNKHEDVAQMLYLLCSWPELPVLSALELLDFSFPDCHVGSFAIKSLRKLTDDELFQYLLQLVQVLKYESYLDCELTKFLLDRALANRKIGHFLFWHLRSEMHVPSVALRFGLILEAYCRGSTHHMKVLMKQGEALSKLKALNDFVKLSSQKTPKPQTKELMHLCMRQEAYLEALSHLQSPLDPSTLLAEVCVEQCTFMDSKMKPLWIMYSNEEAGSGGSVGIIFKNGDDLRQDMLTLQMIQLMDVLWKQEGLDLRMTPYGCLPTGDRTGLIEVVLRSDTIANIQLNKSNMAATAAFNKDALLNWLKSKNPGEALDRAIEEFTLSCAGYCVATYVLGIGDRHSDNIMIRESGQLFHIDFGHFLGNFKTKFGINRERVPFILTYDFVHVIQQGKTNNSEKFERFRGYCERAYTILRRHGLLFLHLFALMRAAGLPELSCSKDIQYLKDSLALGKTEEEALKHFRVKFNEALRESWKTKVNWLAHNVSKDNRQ
MEASURED_QUANTITY: pIC50
One number for each entry, as −log10 of the molar value.

Check out these entries, answers already filled in.
CC(=O)Nc1nc(C)c(-c2ccc(Br)c(S(=O)(=O)NCCO)c2)s1 : 7.48
Cc1nc(NC(=O)C(C)(C)C)sc1-c1ccc(Cl)c(S(=O)(=O)NCCO)c1 : 5.80

Look up pIC50: "Cc1nc(NC(=O)C2CCCC2)sc1-c1ccc(Cl)c(S(=O)(=O)NCCO)c1"
6.47
